Source listed as the supplement of paper PMC10567573.

B1: RHOBTB1 (parent)
chain: TFGDHHKDRRFAYGRSDVVVLCFS

# Variants of: B1
# test: protein stability index of a GFP-peptide fusion (GPS, HEK-293T) (PSI 1-6); higher = more stable;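 also: lentivirally expressed fusions sorted by FACS into six bins by GFP to DsRed ratio, PSI derived from sequencing read proportions per bin multiplied by bin number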
# conditions: c terminus: a fixed tail appended
measured-quantity: protein stability index
# print the numeric value only

[
  {
    "residue-string": "TFGDHHKDRRIAYGRSDVVVLCFS",
    "protein stability index": 2.38
  },
  {
    "residue-string": "TFGDHHKDRRFAYQRSDVVVLCFS",
    "protein stability index": 3.11
  },
  {
    "residue-string": "TFGDHHCDRRFAYGRSDVVVLCFS",
    "protein stability index": 2.42
  },
  {
    "residue-string": "TFGDHHKDRRFAYGVSDVVVLCFS",
    "protein stability index": 4.25
  },
  {
    "residue-string": "TFGDHHKDRRFAYGRSDVVVLCFF",
    "protein stability index": 2.84
  }
]

Now for another entry.
Data request: Can you share its protein stability index? I mean this variant: TFGDHHKDRRFAYGKSDVVVLCFS
Data returned: 2.27
